Origin of measurements: PubChem BioAssay (NCI)

# System: SK-MEL-28 melanoma
# Assay name: NCI tumour cell line growth inhibition, 48 h
This section presents compounds with their documented TGI values.

Worked examples follow.
# Compound, TGI
measured = [
    ("Cc1ccnc(NS(=O)(=O)c2ccc(NC(=O)c3ccc4nc5ccccc5c(Nc5ccc(S(=O)(=O)Nc6nccc(C)n6)cc5)c4c3)cc2)n1", "> 100 µM"),
    ("C=CCCCCOC1C=CC(OC(C)=O)C(COC(C)=O)O1 (stereo not drawn)", "> 100 µM"),
]

q: Look up and report measured TGI for this entry: `CC(=O)NNc1nc(C)c(C(=O)NNC(=O)C(=O)Nc2ccc(C)c(C)c2)s1`
a: > 100 µM
